- experimental-target: mouse mu opioid receptor (mMOR-CHO) (Mus musculus, UniProt P42866)
- method: [35S]GTPγS functional assay, mMOR-CHO membranes
property-measured: pIC50
Scale explanation: pIC50 corresponds to minus log10 of a concentration expressed in moles per litre.

Return pIC50 measured with mouse mu opioid receptor (mMOR-CHO) (Mus musculus, UniProt P42866) given this molecule: C=C[C@H]1[C@H]2CCC[C@]1(c1cccc(O)c1)CCN2CCc1ccc([N+](=O)[O-])cc1 7.79

====

- method: Multi-point cytosol stability assay, rat
- Type: in vitro ADME
- condition-description: rat cytosol fractions, pH 7.4
Below, each of the compounds is paired with its reported half-life at 1 μM value.

C=C[C@H]1[C@H]2CCC[C@]1(c1cccc(NC(C)=O)c1)CCN2CCc1ccccc1 [compound 3] = 1.47 h
C=C[C@H]1[C@H]2CCC[C@]1(c1cccc(O)c1)CCN2CCc1cccc([N+](=O)[O-])c1 [compound 18] = > 2 h
C=C[C@H]1[C@H]2CCC[C@]1(c1cccc(O)c1)CCN2CCc1cccs1 [compound 16] = > 2 h
C=C[C@H]1[C@H]2CCC[C@]1(c1cccc(O)c1)CCN2CCc1ccc(O)cc1 [compound 20] = > 2 h
C=C[C@H]1[C@H]2CCC[C@]1(c1cccc(O)c1)CCN2CC1CC1 [compound 15] = 1.8 h
C=C[C@H]1[C@H]2CCC[C@]1(c1cccc(O)c1)CCN2C [compound 11] = > 2 h
C=C[C@H]1[C@H]2CCC[C@]1(c1cccc(C(N)=O)c1)CCN2CCc1ccccc1 [compound 5] = > 2 h
C=C[C@H]1C2CCCC1(c1cccc(O)c1)CCN2CCc1cccc(O)c1 (stereo in doubt) [compound 25] = > 2 h

Need half-life at 1 μM, item C=C[C@H]1[C@H]2CCC[C@]1(c1cccc(O)c1)CCN2CCc1ccccc1 [DC-1–76.2, reference compound] > 2 h

What do we get for C=C[C@H]1C2CCCC1(c1cccc(O)c1)CCN2CCc1ccccc1[N+](=O)[O-] (stereo in doubt) [compound 24] ? > 2 h

What do we get for C=C[C@@H]1[C@H]2CCC[C@]1(c1cccc(O)c1)CCN2C [compound 10] ? 1.93 h

What do we get for C=C[C@H]1[C@H]2CCC[C@]1(c1cccc(O)c1)CCN2CCc1ccc([N+](=O)[O-])cc1 [compound 17] ? > 2 h

What do we get for C=C[C@H]1[C@H]2CCC[C@]1(c1cccc(O)c1)CCN2CCc1ccc(F)cc1 [compound 19] ? 1.32 h

====

- experimental-target: KOR (mKOR-CHO) (Mus musculus, UniProt P33534)
property-measured: Ki (nM)
Report as a plain number; the unit nM is understood.

Need Ki, item C=C[C@H]1[C@H]2CCC[C@]1(c1cccc(C(N)=O)c1)CCN2CCc1ccccc1 48.7

====

- experimental-target: human δ-opioid receptor (OPRD1) (Homo sapiens, UniProt P41143)
- method: Forskolin-induced cAMP accumulation assay, DOR agonist mode
property-measured: pEC50
Scale explanation: pEC50 corresponds to minus log10 of a concentration expressed in moles per litre.

C=C[C@H]1[C@H]2CCC[C@]1(c1cccc(O)c1)CCN2CCc1cccs1 [compound 16] = 7.88

Next molecule, please.
Need pEC50, item C=C[C@H]1[C@H]2CCC[C@]1(c1cccc(NC(C)=O)c1)CCN2CCc1ccccc1 [compound 3] 6.52
